Test: Plasma pharmacokinetics after oral gavage in male Sprague-Dawley rats
Format: in vivo
Settings: male, Sprague-Dawley, rat, in vivo, po
Method: A pharmacokinetic (PK) analysis was performed on plasma concentrations of various combinations of amino acid compounds administered by oral gavage to male Sprague-Dawley rats. […] Bioanalysis of collected plasma samples for amino acid content was performed at Axcella Health using an LC-MS method (Section 2.1). Bioanalytical data were analyzed using noncompartmental analysis with Phoenix® WinNonLin® (v8.1). […]
QUANTITY NAME: Cmax (µM)
Answers are plain numbers, in µM.

Consider the compound shown here: N[C@@H](Cc1c[nH]cn1)C(=O)O [Histidine] What is its recorded Cmax? 41.9

====

experiment: Plasma pharmacokinetics after oral gavage in male Sprague-Dawley rats; assay type: in vivo; conditions: rat; plasma, Mean; oral gavage of RCitNacQCarLHKVS, male Sprague-Dawley rats; read-out: Cmax
Threshold check on Cmax: at or above 300 µM gives y, strictly below gives n.

[
  {
    "COMPOUND": "NCCCC[C@H](N)C(=O)O",
    "CLASS LABEL": "y"
  },
  {
    "COMPOUND": "CC(C)[C@H](N)C(=O)O",
    "CLASS LABEL": "n"
  },
  {
    "COMPOUND": "NC(=O)CC[C@H](N)C(=O)O",
    "CLASS LABEL": "y"
  }
]

Okay, now this compound:
Cmax >= 300 µM for `NC(=O)NCCC[C@H](N)C(=O)O` ? y

====

assay: Plasma pharmacokinetics after oral gavage in male Sprague-Dawley rats; type: in vivo; set-up: concentration or dose not given beside the values; conditions: rat; plasma, Mean; oral gavage of RCitNacQCarLHKVS, male Sprague-Dawley rats; read-out: AUC0-5 h
QUANTITY NAME: AUC(0-t)
Respond with a number, then the unit of measure.

[
  {
    "COMPOUND": "NC(=O)NCCC[C@H](N)C(=O)O [Citrulline]",
    "AUC(0-t)": "2090 µM·h"
  },
  {
    "COMPOUND": "C[N+](C)(C)CC(O)CC(=O)[O-] (centres unmarked) [Carnitine]",
    "AUC(0-t)": "237 µM·h"
  },
  {
    "COMPOUND": "N=C(N)NCCC[C@H](N)C(=O)O [Arginine]",
    "AUC(0-t)": "2210 µM·h"
  }
]

Dear colleague, could you please provide AUC(0-t) for the compounds listed below?
1. CC(C)C[C@H](N)C(=O)O [Leucine]
2. N[C@@H](CO)C(=O)O [Serine]
3. NC(=O)CC[C@H](N)C(=O)O [Glutamine]
4. NCCCC[C@H](N)C(=O)O [Lysine]
5. CC(C)[C@H](N)C(=O)O [Valine]

["586 µM·h", "1030 µM·h", "2370 µM·h", "1350 µM·h", "463 µM·h"]

====

test: Plasma pharmacokinetics after oral gavage in male Sprague-Dawley rats; assay type: in vivo; settings: rat; plasma, Mean; oral gavage of RCitNacQCarLHKVS, male Sprague-Dawley rats; read-out: Tmax
The label depends only on Tmax: condition met if it is at least 2 h, condition not met if it is smaller.

Field: example entries. Status: answers known.
[
  {
    "COMPOUND": "NCCCC[C@H](N)C(=O)O",
    "CLASS LABEL": "condition not met"
  },
  {
    "COMPOUND": "N[C@@H](CO)C(=O)O",
    "CLASS LABEL": "condition met"
  },
  {
    "COMPOUND": "C[N+](C)(C)CC(O)CC(=O)[O-] (centres unmarked)",
    "CLASS LABEL": "condition met"
  },
  {
    "COMPOUND": "NC(=O)CC[C@H](N)C(=O)O",
    "CLASS LABEL": "condition not met"
  },
  {
    "COMPOUND": "CC(C)C[C@H](N)C(=O)O",
    "CLASS LABEL": "condition not met"
  },
  {
    "COMPOUND": "N=C(N)NCCC[C@H](N)C(=O)O",
    "CLASS LABEL": "condition not met"
  }
]

Does the reported Tmax for `CC(C)[C@H](N)C(=O)O` fall at or above the 2 h mark? condition not met

Has `NC(=O)NCCC[C@H](N)C(=O)O` a recorded Tmax greater than or equal to 2 h? condition met

====

assay: Plasma pharmacokinetics after oral gavage in male Sprague-Dawley rats; format: in vivo; settings: male, Sprague-Dawley, rat, in vivo, po
QUANTITY NAME: Tmax (h)
One number for each entry, in h.

Query: Tmax; subject: `N[C@@H](Cc1c[nH]cn1)C(=O)O` 1.25

====

experiment: Plasma pharmacokinetics after oral gavage in male Sprague-Dawley rats; type: in vivo; settings: male, Sprague-Dawley, rat, in vivo, po
QUANTITY NAME: AUC(0-t)

State the recorded AUC(0-t) for this entry: `N[C@@H](Cc1c[nH]cn1)C(=O)O` 157 µM·h

====

system: RBCs of healthy whole blood; experiment: RBC deformability (LORRCA elongation index), ex vivo TBHP oxidation of healthy whole blood; assay type: cell-based, human; conditions: healthy donor 2, single amino acid treatments, in words
QUANTITY NAME: EI over vehicle control, ½ EImax and EImax

As a guide, the following entries are already answered.
[
  {
    "COMPOUND": "N=C(N)NCCC[C@H](N)C(=O)O",
    "RESULT": "higher than the vehicle"
  },
  {
    "COMPOUND": "CC(=O)N[C@@H](CS)C(=O)O",
    "RESULT": "higher than the vehicle"
  },
  {
    "COMPOUND": "C[N+](C)(C)CC(O)CC(=O)[O-] (centres unmarked)",
    "RESULT": "higher than the vehicle"
  },
  {
    "COMPOUND": "NC(=O)CC[C@H](N)C(=O)O",
    "RESULT": "higher than the vehicle"
  }
]

Below: the item to evaluate.
Entry under review: `NC(=O)NCCC[C@H](N)C(=O)O` . Reported EI over vehicle control, ½ EImax and EImax? higher than the vehicle

====

Hi there, I'd appreciate the recorded Cmax for every entry that follows.
assay: Plasma pharmacokinetics after oral gavage in male Sprague-Dawley rats; assay type: in vivo; details: rat; plasma, Mean; oral gavage of RCitNacQCarLHKVS, male Sprague-Dawley rats; read-out: Cmax
Numbers only, in µM.

Use the examples below as a reference point.
[
  {
    "MOLECULE": "C[N+](C)(C)CC(O)CC(=O)[O-] (stereo not shown)",
    "QUANTITY NAME": "Cmax",
    "READING UNIT": "µM",
    "NUMERIC READOUT": 83.8
  },
  {
    "MOLECULE": "N=C(N)NCCC[C@H](N)C(=O)O",
    "QUANTITY NAME": "Cmax",
    "READING UNIT": "µM",
    "NUMERIC READOUT": 565
  },
  {
    "MOLECULE": "N[C@@H](CO)C(=O)O",
    "QUANTITY NAME": "Cmax",
    "READING UNIT": "µM",
    "NUMERIC READOUT": 285
  }
]

Please turn your attention to the following entry.
# input molecule: `CC(C)C[C@H](N)C(=O)O` ; wanted: its Cmax 170
